System: Plasmodium falciparum
Protocol Description: GSK_TCMDC: Inhibition of Plasmodium falciparum Dd2 in whole red blood cells, using parasite LDH activity as an index of growth. Test compounds present at 2uM
Type: functional
Inhibition vs 70%: less than gives class 1; not less than gives class 0.

Item CCCCN(CCCC)CCC(O)C(=Cc1ccc(Cl)cc1Cl)c1ccc(C(F)(F)F)cc1N (stereo not drawn) : Inhibition beneath 70%, strictly?
class 0

Inhibition under 70%? Item: CC(C)CCOc1ccc(NC(=O)c2cccs2)cc1
class 0

Check if Inhibition falls below 70% for Cl.O=C(Nc1ccc(Cl)c(Cl)c1)N1CCc2cc3nccc(N4CCN5CCC[C@H]5C4)c3cc21 .
class 0

----------
System: Plasmodium falciparum
Protocol Description: GSK_TCMDC: Inhibition of Plasmodium falciparum Dd2 in whole red blood cells, using parasite LDH activity as an index of growth. Test compounds present at 2uM
Type: functional
Mark yes for reported Inhibition of 70% or greater; mark no for anything smaller.

COc1ccc(-n2ccnc2SCC(=O)Nc2cccc(C(F)(F)F)c2)c(OC)c1
yes
COc1cc2c(cc1OC)C(C(=O)c1ccccc1)=NCC2.Cl
no
O=C(NCCCN1CCCC1=O)c1cnc(N2CCC(Oc3ccccc3)CC2)c(Cl)c1
yes

Kindly determine if Inhibition recorded for CCOC(=O)c1ccc(NC(=O)Nc2cccc(-c3ccc(-c4nc5cc(C(F)(F)F)ccc5[nH]4)cc3)c2)cc1 is above or exactly 70%.
yes

Does the compound Cc1cccc2nc(-c3ccc(-c4cccc(CNCCc5ccncc5)c4)s3)[nH]c12.O=C(O)C(F)(F)F have recorded Inhibition that is 70% or more?
yes

Decide: Inhibition of CCN1CCN(c2cc(C)c3cc(NC(=O)c4ccc(N(CC)CC)cc4)ccc3n2)CC1 >= 70%?
no

Could you tell me if the measured Inhibition of CN(Cc1ccc(-c2ccc(C(F)(F)F)cc2)cc1)C(=O)Cn1c(CCc2cccc(F)c2F)nc(=O)c2ccc(N3CCN(CCN4CCCCC4)CC3)nc21.O=C(O)C(O)C(O)C(=O)O reaches 70% or more?
yes

Evaluate O=C(Nc1ccc(Cn2ncc(N3CCCNCC3)c(Cl)c2=O)cc1)Nc1ccc(-c2ccccc2)cc1 : Inhibition at minimum 70%?
no

----------
System: Plasmodium falciparum
Protocol Description: GSK_TCMDC: Inhibition of Plasmodium falciparum Dd2 in whole red blood cells, using parasite LDH activity as an index of growth. Test compounds present at 2uM
Assay type: functional
Mark each entry MET if its Inhibition sits below 60%, and NOT MET for all others.

Would you please look over these solved cases?
Cc1cc(C2CCN(CCCCNC(=O)c3ccc(-c4ccc(C(F)(F)F)cc4)cc3)CC2)c(C)cc1OCCO
MET
CCc1cn2c3c(cc(C(=O)N[C@@H](Cc4cc(F)cc(F)c4)[C@H](O)CNC4CCOCC4)cc13)N(C)S(=O)(=O)CC2.O=CO
NOT MET
CNCc1ccc(CN(C)c2nc(N)c3cc(OC)c(OC)cc3n2)cc1.O=C(O)C(F)(F)F
MET
c1csc(-c2nc(N3CCCCC3)ncc2-c2ccsc2)n1
NOT MET
CN(Cc1ccc(-c2ccc(C(F)(F)F)cc2)cc1)C(=O)Cn1c(CCc2cccc(F)c2F)cc(=O)c2ccc(OCCCN3CCCCC3)cc21.O=C(O)C(O)C(O)C(=O)O
NOT MET
CN1CCN(CC(=O)Nc2cccc(-c3cccc(-c4nc5cc(C(F)(F)F)ccc5[nH]4)c3)c2)CC1
NOT MET
CC(C)(C)C1CCC(C(=O)c2ccc3ccccc3c2O)CC1 (stereo not drawn)
NOT MET

Attention now turns to another entry.
Please state whether Inhibition is below 60% for COCCNCc1ccc(-c2ccc(CNc3ccc4ncccc4c3)cc2)cc1.O=C(O)C(F)(F)F
MET
